# System: THP-1 (AML) cells
# test_protocol: LSD1 CD11b cellular assay (flow cytometry)
# Type: cell-based
# condition_description: Homo sapiens, 96 h; CD11b expression in THP-1 (AML) cells, flow cytometry, 4 days incubation; read-out: Cellular IC50
pIC50: −log10 of the molar value.
property_measured: pIC50

N#Cc1ccc(-c2nc(N3CCC4NCCC4C3)ncc2-c2cnn(CC(F)(F)F)c2)cc1 (centres unmarked) :: 6.00 to 7.00
N#Cc1ccc(-c2nc(N3CCC(N)CC3)ncc2-c2cnn(CC(F)(F)F)c2)cc1F :: > 7.00
Cc1ccc(-c2cnc(N3C[C@H]4CNC[C@H]4C3)nc2-c2ccc(C#N)cc2)cc1 :: > 7.00
Cn1ncc2nc(-c3cnc(N4CCC(N)CC4)nc3-c3ccc(C#N)cc3)ccc21 :: 6.00 to 7.00
Cc1ccc(-c2cc(NC[C@H]3CCNC3)nn2-c2ccc(C#N)cc2)cc1 :: 6.00 to 7.00
COc1nc(N2CCCNCC2)nc(-c2ccc(C#N)c(F)c2)c1-c1ccc2nn(C)cc2c1 :: > 7.00
Cn1cc(C#Cc2cnc(N3CCC(N)CC3)nc2-c2ccc(C#N)c(F)c2)cn1 :: > 7.00
Cn1ncc2cc(-c3cnc(N4CCC(N)CC4)nc3-c3ccc(C#N)cc3)ncc21 :: 6.00 to 7.00
N#Cc1ccc(-c2nc(N3CCC(N)CC3)ncc2-c2cnn(CC3CCOC3)c2)cc1 (centres unmarked) :: 6.00 to 7.00
N#Cc1ccc(-c2cc3c(ccn3C[C@@H]3CCNC3)nc2Cl)cc1 :: 5.00 to 6.00

Provide reported pIC50 for each item, in the same order as listed.
1. Cn1cnc2cc(-c3cnc(N4CCC(N)CC4)nc3-c3ccc(C#N)cc3)cnc21
2. CNc1nc(N2CCC(N(C)C)CC2)nc(-c2ccc(C#N)cc2)c1-c1ccc2nn(C)cc2c1
3. Cn1cc2cc(-c3cnc(N4CCC(N)CC4)nc3-c3ccc(C#N)cc3)ccc2n1
4. Cn1ccc(C#Cc2cnc(N3CCC(N)CC3)nc2-c2ccc(C#N)c(F)c2)n1
5. Cc1c2cc(-c3cnc(N4CCC(N)CC4)nc3-c3ccc(C#N)c(F)c3)ccc2nn1C

1. > 7.00
2. > 7.00
3. > 7.00
4. > 7.00
5. > 7.00

Each molecule below has a reported value. Please supply its pIC50.
1. N#Cc1ccc(-c2cc3c(ccn3C[C@H]3CCNC3)nc2N2CCOCC2)cc1
2. COc1nc(N2CCC(N)CC2)nc(-c2ccc(C#N)c(F)c2)c1-c1ccc2nn(C)cc2c1

6.00 to 7.00
> 7.00

----------
Can you tell me IC50 for the items I'm about to list?
# target_or_system: full-length human LSD1 (Homo sapiens (Human), UniProt O60341)
# test_protocol: In vitro enzyme inhibition assay LSD-1 (TR-FRET)
# Format: biochemical
# condition_description: TR-FRET, 0.1 nM LSD1, 50 nM H3K4me1-biotin peptide, 2 μM FAD, pH7.3; read-out: LSD1 IC50

Previously resolved entries follow.
CNc1ncc(-c2cnc(N3CCC(N)CC3)nc2-c2ccc(C#N)c(F)c2)cn1 :: < 0.1 µM
Cn1cc(C#Cc2cnc(N3CCC(N)CC3)nc2-c2ccc(C#N)c(F)c2)nn1 :: < 0.1 µM

I'm hoping you can list IC50 for every molecule here, please.
1. N#Cc1ccc(-c2nc(N3CCC(N)CC3)ncc2-c2cnn(CC(F)(F)F)c2)cc1
2. Cn1nnc2cc(-c3cnc(N4CCC(N)CC4)nc3-c3ccc(C#N)c(F)c3)cnc21
3. COc1nc(N2CCC(N)CC2)nc(-c2ccc(C#N)cc2)c1-c1cnc(N(C)C)nc1
4. N#Cc1ccc(-c2nc(N3CC4CNCC(C3)O4)ncc2-c2ccc(F)cc2)cc1
5. Cc1ccc(-c2nc3ccn(C[C@H]4CCNC4)c3cc2-c2ccc(C#N)cc2)cc1
6. N#Cc1ccc(-c2cc3c(ccn3CC3(F)CCNC3)nc2N2CCOCC2)cc1 (centres unmarked)

["< 0.1 µM", "< 0.1 µM", "< 0.1 µM", "0.1 to 1 µM", "< 0.1 µM", "0.1 to 1 µM"]

Data origin: patent US10131664B2
